Values were extracted from the M2OR odorant receptor database.

- TARGET_SYSTEM: UniProt L7MU75
- Sequence (L7MU75 as listed by the source): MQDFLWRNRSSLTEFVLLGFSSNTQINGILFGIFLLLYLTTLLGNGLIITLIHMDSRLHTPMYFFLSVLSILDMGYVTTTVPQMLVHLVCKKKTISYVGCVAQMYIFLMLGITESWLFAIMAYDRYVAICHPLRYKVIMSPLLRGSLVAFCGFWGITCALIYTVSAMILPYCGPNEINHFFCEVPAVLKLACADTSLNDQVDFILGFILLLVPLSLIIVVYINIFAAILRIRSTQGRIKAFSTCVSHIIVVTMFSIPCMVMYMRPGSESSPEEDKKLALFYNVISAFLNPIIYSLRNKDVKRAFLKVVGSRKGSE
- TEST_CONTEXT: stereoisomer not certain
Respond with a class label; see active, inactive

Past entries and their recorded results:
> print(dat)
                                 molecule   target.system  classification
1                   O=C(Cl)CCCCCCCC(=O)Cl  UniProt L7MU75        inactive
2  CC(C)=C1CCC(C)CC1=O (stereo not drawn)  UniProt L7MU75        inactive
3                           CCCCOC(=O)CCC  UniProt L7MU75        inactive
4                        CC=Cc1ccc(OC)cc1  UniProt L7MU75        inactive
5                           CCCCCOC(=O)CC  UniProt L7MU75        inactive
6                          CCCCCOC(=O)CCC  UniProt L7MU75        inactive

Input: For c1ccccc1 , which call appears in the assay record?
Output: inactive

Input: For c1ccc2ncccc2c1 , which call appears in the assay record?
Output: active

Input: For C=C(CC)CCCC(C)(C)O , which call appears in the assay record?
Output: inactive

Input: For CC=C(C)C=O , which call appears in the assay record?
Output: inactive

Input: For CCc1nccnc1CC , which call appears in the assay record?
Output: inactive

Input: For Cc1ccccc1OC(=O)C(C)C , which call appears in the assay record?
Output: inactive

Input: For CC1CC=CCCCCCCCCCC(=O)C1 (stereo not drawn) , which call appears in the assay record?
Output: inactive

Input: For CCCC(C)=O , which call appears in the assay record?
Output: inactive

Input: For CCCC=O , which call appears in the assay record?
Output: inactive

Input: For CC(C)=CCCC(C)=CCO , which call appears in the assay record?
Output: inactive

Input: For CC(C)CS , which call appears in the assay record?
Output: inactive

Input: For CCCCCCC=CC=O , which call appears in the assay record?
Output: inactive

* * *

- TARGET_SYSTEM: UniProt Q9WVN5
- Sequence (whole entry): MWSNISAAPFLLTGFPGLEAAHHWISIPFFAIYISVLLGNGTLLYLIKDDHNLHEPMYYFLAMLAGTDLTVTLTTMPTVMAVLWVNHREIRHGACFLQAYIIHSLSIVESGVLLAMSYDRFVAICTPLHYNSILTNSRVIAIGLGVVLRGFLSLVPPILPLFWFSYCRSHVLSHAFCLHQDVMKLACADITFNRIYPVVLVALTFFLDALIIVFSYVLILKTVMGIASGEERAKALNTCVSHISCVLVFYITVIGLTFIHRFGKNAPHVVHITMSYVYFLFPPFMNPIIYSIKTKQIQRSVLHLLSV
- TEST_CONTEXT: stereoisomer not certain
MEASURE_NAME: odorant receptor agonist call

Example molecules with recorded odorant receptor agonist call:
> print(dat)
         mol.smiles  value.observed
1   CC(=O)Oc1ccccc1        inactive
2  CC(=O)OCc1ccccc1        inactive
3        CCCCC(=O)O          active
4   O=C1Cc2ccccc2O1          active
5     CCOC(=O)C(C)C        inactive

Now consider a different molecule.
// odorant receptor agonist call value for c1ccccc1 : inactive
